biological target: Arf-GAP with SH3 domain, ANK repeat and PH domain-containing protein 1 (Homo sapiens) (UniProt Q9ULH1); experiment: inhibitors of human ASAP1 ArfGAP activity, primary screen, biochemical, fluorescence polarization (AID 624377); conditions: ASAP1-stimulated ARF1 GTP hydrolysis, GDP FP detection; at 16.5 µM; active compounds read high;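 also: 0% = vehicle with enzyme and substrate and 100% = no enzyme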
Sequence (Q9ULH1 325-724 limits assumed): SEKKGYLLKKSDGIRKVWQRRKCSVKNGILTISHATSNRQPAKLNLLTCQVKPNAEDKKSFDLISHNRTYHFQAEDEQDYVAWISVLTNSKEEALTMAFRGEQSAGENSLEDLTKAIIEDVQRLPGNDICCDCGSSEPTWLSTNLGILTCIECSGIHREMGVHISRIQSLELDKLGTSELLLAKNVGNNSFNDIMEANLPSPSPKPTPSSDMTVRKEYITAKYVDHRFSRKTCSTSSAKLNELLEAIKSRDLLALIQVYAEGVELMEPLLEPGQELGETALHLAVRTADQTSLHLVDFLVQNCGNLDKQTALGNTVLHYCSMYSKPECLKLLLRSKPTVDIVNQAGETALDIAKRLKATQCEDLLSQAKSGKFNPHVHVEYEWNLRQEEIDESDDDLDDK
The campaign covered roughly 360,000 compounds. About 680 (0.19%) were called active. The sample as a whole holds a higher share of actives than the screen did.
readout: inhibition

COC(=O)N1Cc2ccnnc2CC1c1ccccc1Br (stereo not given)    7.59% (inactive)
COCCNC(=S)N(C)[C@H]1C[C@H]2c3[nH]c4ccccc4c3CCN2C[C@H]1[C@H](C)O    6.89% (inactive)
Nc1ncnc2c1ncn2C1OC(CO)CC1O (stereo not given)    3.34% (inactive)
COC(=O)c1c(-c2ccc(OC)cc2)c2c(c3c4ccccc4n(S(=O)(=O)c4ccc(C)cc4)c13)C(=O)N(C)C2    5.81% (inactive)
Cc1ccc(NC(=O)N2c3ccccc3SC2c2ccco2)c(C)c1 (stereo not given)    0.24% (inactive)
COC(=O)[C@H](CC(C)C)NS(=O)(=O)c1c(F)cccc1F    0.11% (inactive)
CC(C)(C)c1ccc(S(=O)(=O)NCC2CCN(C(=O)C(=O)c3cc4ccccc4o3)CC2)cc1    -6.17% (inactive)
COC(=O)c1cc2c(c3c4cc(F)ccc4n(S(=O)(=O)c4ccccc4)c13)C(=O)N(Cc1ccccc1OC)C2    -0.6% (inactive)
CN(C)C(=O)N1CCN(C(=O)[C@@H](Cc2ccccc2)NC(=O)[C@H]2O[C@@H](n3ccc(N)nc3=O)[C@H](O)[C@@H]2O)CC1    -4.92% (inactive)
CN1C(=O)C2CC(O)C(SC3CC4C(=O)N(C)C(=O)C4CC3O)CC2C1=O (stereo not given)    -4.75% (inactive)

----------
Item-by-item account of inhibition
target: Arf-GAP with SH3 domain, ANK repeat and PH domain-containing protein 1 (Homo sapiens) (UniProt Q9ULH1); assay: inhibitors of human ASAP1 ArfGAP activity, primary screen, biochemical, fluorescence polarization (AID 624377); conditions: ASAP1-stimulated ARF1 GTP hydrolysis, GDP FP detection; at 16.5 µM; active compounds read high;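 also: 0% = vehicle with enzyme and substrate and 100% = no enzyme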
In all, about 360,000 compounds went through this assay and about 680 (0.19%) were called active. The entries come from a sample that favours actives as a whole.
readout: inhibition (%)

O=C(C(=O)N1CCC(CNS(=O)(=O)Cc2ccccc2)CC1)c1cc2ccccc2o1    -10.9
CC(C)(C)n1nc(C2CC2)c(Br)c1NC(=O)c1ccccc1F    -0.45
Cc1cc2c(nc1C)CCCN2C    -12
COc1ccc(CNS(=O)(=O)c2cc(Br)ccc2Br)cc1    -8.38
CN1CCCCC(NC(=O)C(C)(C)C)C1=O (stereo unspecified)    -1.72
COC(=O)[C@]12C[C@H](CC(=O)NCc3ccc(C)o3)C(=O)N(CCC3=CCCCC3)C1=C[C@H](C(C)(C)C)O[C@@H]2C    -6.9

----------
molecular target: Arf-GAP with SH3 domain, ANK repeat and PH domain-containing protein 1 (Homo sapiens); assay: inhibitors of human ASAP1 ArfGAP activity, primary screen, biochemical, fluorescence polarization (AID 624377); conditions: ASAP1-stimulated ARF1 GTP hydrolysis, GDP FP detection; at 16.5 µM; active compounds read high;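 also: 0% = vehicle with enzyme and substrate and 100% = no enzyme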
Out of some 360,000 compounds screened, about 680 (0.19%) were called active. For the sample, actives were picked, then their nearest neighbours and some compounds at random.
readout: inhibition (%)

COC(=O)C1=C(C)N(Cc2ccc(C(F)(F)F)cc2)C(=NCc2ccc(C(F)(F)F)cc2)NC1c1cccc(Cl)c1 (configuration not stated)    1.4
COc1ccc(S(=O)(=O)Nc2ccc3c(c2)C(=O)N([C@H](C)CO)C[C@H](C)[C@@H](CN(C)C)OCCCC[C@H](C)O3)cc1    -2.07
COC(=O)[C@]12C[C@H](CC(=O)NCCCCc3ccccc3)C(=O)N(Cc3ccc4c(c3)OCO4)C1=C[C@H](C(C)(C)C)O[C@@H]2C    -6.7
O=C(NCc1ccccc1)[C@@H]1CCCN1C(=O)[C@H]1CCCN1C(=O)c1cccc(Cl)c1    5.06
O=c1/c(=C/c2ccc(CNS(=O)(=O)c3ccccc3)o2)sc2n1CCN=2    26
O=C(NCc1ccccc1)[C@H]1CCCN1C(=O)[C@H]1CCCN1C(=O)c1cc(F)cc(F)c1    5.35
OC(CCl)CCl    12.1
Cc1noc(C)c1NC(=O)Nc1ccc2c(c1)C(=O)N([C@H](C)CO)C[C@H](C)[C@H](CN(C)Cc1ccncc1)OCCCC[C@@H](C)O2    3.29
COC(=O)Cc1nnn2c1[C@H](C)[C@H](c1ccccc1Br)OCC2    -9.73
COc1ccccc1C(=O)N1O[C@]23C=C[C@]14C[C@@H](O)CC[C@]4(C)C2CC[C@]1(C)[C@@H]([C@H](C)/C=C/[C@H](C)C(C)C)CC[C@H]13 (some centres not stated)    6.77
O=S(=O)(c1cccs1)N1CCCc2nc(-c3ccc(Br)cc3)ccc21    0.45
COc1ccc(-n2nnnc2SCC(=O)c2ccc(OC)c(OC)c2)cc1    27.3
CC1CCN(C(=O)c2ncn3c2C(=O)N[C@@H](C)C3)CC1    1.95
CC(=O)C1=C(C)N(Cc2ccc(Cl)cc2)C(=S)NC1c1ccc(F)cc1 (configuration not stated)    -0.95
O=C(CSc1nnnn1-c1ccc(O)cc1)c1ccc(F)cc1    1.74
C[C@@H]1CN([C@H](C)CO)C(=O)CCCn2cc(nn2)CO[C@H]1CN(C)C(=O)Nc1ccc(N2CCCCC2)cc1    -5.8
Cc1ccc2nc(SCC(=O)N3CCN(c4ccccc4)CC3)nc(=O)n2c1    14.1

Every entry's value here was drawn from PubChem BioAssay AID624377.
